Reported Kokumi intensity (0-5) is given for each of the following molecules.
System: trained sensory panel
Assay: Sensory triangle test, kokumi taste in chicken broth
Format: in vivo
Condition notes: additive 10 mmol/L, pH 6.5, scale 0 to 5 (5 most intensive), broth without additives rated 2
Returns: the value as a bare number; no unit string appended.

Previously resolved entries follow.
>>> endpoint_result("COC(=O)CC(SC[C@H](NC(=O)CC[C@H](N)C(=O)O)C(=O)NCC(=O)O)C(=O)OC (stereo partly drawn)")
3.5
>>> endpoint_result("CCOC(=O)CC(SC[C@H](NC(=O)CC[C@H](N)C(=O)O)C(=O)O)C(=O)OCC (stereo partly drawn)")
4.5
>>> endpoint_result("COC(=O)CC(SC[C@H](NC(=O)CC[C@H](N)C(=O)O)C(=O)O)C(=O)OC (stereo partly drawn)")
4.5
>>> endpoint_result("N[C@@H](CCC(=O)N[C@@H](CS)C(=O)NCC(=O)O)C(=O)O [GSH, reduced form, Gamma-L-glutamyl-L-cysteinyl-glycine]")
3.5
>>> endpoint_result("N[C@@H](CCC(=O)O)C(=O)[O-].[Na+] [MSG, mono sodium glutamate]")
2

Now consider a different molecule.
# input molecule: CCOC(=O)CC(SC[C@H](NC(=O)CC[C@H](N)C(=O)O)C(=O)NCC(=O)O)C(=O)OCC (stereo partly drawn) ; wanted: its Kokumi intensity (0-5)
3.5

Measured values drawn from patent US8088426B2 for this set.
